Data origin: patent US10377773B2

biological target: USP7 (Homo sapiens, UniProt Q93009); construct: USP7, construct USP7 (208-1102) 6*His, Viva Biotech; initiator Met (N); TEV site (C); 6*His (C); experiment: USP7 Assay A and B (Ubiquitin-Rhodamine 110 assay); settings: Ub-Rh110 substrate 25 nM, read-out: USP7_IC50
Sequence (Q93009 208-1102): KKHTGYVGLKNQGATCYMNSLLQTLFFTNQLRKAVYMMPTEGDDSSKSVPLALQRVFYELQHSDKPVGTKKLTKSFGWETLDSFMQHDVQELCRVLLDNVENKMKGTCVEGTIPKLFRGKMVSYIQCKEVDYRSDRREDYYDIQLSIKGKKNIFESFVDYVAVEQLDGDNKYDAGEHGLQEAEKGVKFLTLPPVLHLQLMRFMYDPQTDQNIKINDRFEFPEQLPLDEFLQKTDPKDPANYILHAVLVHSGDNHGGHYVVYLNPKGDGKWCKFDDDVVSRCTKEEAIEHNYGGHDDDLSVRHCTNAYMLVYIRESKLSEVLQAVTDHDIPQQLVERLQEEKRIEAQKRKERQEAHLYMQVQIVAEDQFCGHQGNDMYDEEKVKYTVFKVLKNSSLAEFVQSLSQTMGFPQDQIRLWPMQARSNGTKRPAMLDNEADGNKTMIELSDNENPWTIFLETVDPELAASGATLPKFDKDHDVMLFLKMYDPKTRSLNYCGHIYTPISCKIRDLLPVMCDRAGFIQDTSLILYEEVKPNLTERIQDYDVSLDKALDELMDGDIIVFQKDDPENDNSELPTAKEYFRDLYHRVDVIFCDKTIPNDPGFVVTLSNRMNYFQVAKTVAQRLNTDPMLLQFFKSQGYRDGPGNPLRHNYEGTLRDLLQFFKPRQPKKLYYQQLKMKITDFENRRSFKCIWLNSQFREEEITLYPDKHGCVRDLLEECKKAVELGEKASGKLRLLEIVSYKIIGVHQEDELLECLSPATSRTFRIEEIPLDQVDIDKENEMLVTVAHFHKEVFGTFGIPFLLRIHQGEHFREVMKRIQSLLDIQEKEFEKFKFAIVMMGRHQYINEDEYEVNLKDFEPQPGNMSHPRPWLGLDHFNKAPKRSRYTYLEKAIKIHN
Property: IC50

Endpoint output: IC50 of C[C@@H](CC(=O)N1CCC(O)(Cn2cnc3c(-c4ccccc4)nsc3c2=O)CC1)c1ccccc1 [Compound I-12] . Value?
< 500 nM

How about CN(C)C(=O)N1CCC(O)(Cn2cnc3c(-c4ccc(F)c(N5CCNCC5)c4)nsc3c2=O)CC1 [Compound I-22] ?
1000 to 10000 nM

How about O=C(c1ccc(F)cc1)N1CCC(O)(Cn2cnc3c(-c4ccc(CO)cc4)nsc3c2=O)CC1 [Compound I-23] ?
1000 to 10000 nM

How about CN1CCN(c2ccc(C(=O)N3CCC(O)(Cn4cnc5c(-c6ccc(F)cc6)nsc5c4=O)CC3)nc2)CC1 [Compound I-10] ?
> 10000 nM

How about CC(CC(=O)N1CCC(O)(Cn2cnc3c(-c4ccccc4)nsc3c2=O)CC1)n1cccn1 (stereo not drawn) [Compound I-14] ?
1000 to 10000 nM

How about O=C(c1ccc(F)cc1)N1CCC(O)(Cn2cnc3c(-c4ccccc4)nsc3c2=O)CC1 [Compound I-1] ?
> 10000 nM

How about O=C1NCCN1CCOc1cccc(-c2nsc3c(=O)n(CC4(O)CCN(C(=O)C5CC5)CC4)cnc23)c1 [Compound I-27] ?
1000 to 10000 nM

How about O=C(CCC(F)(F)F)N1CCC(O)(Cn2cnc3c(-c4ccc(F)cc4)nsc3c2=O)CC1 [Compound I-25] ?
> 10000 nM

How about COc1ccc(-c2nsc3c(=O)n(CC4(O)CCN(C(=O)c5ccc(F)cc5)CC4)cnc23)cc1 [Compound I-2] ?
1000 to 10000 nM

How about O=C(c1ccc(F)cc1)N1CCC(O)(Cn2cnc3c(-c4cccc(CO)c4)nsc3c2=O)CC1 [Compound I-4] ?
1000 to 10000 nM

How about COc1ccc(C(=O)N2CCC(O)(Cn3cnc4c(-c5ccc(OC)cc5)nsc4c3=O)CC2)cc1 [Compound I-31] ?
1000 to 10000 nM

How about O=C(CC(c1ccccc1)C(F)F)N1CCC(O)(Cn2cnc3c(-c4ccccc4)nsc3c2=O)CC1 (stereo not drawn) [Compound I-17] ?
1000 to 10000 nM

How about O=C(C[C@@H](c1ccccc1)C(F)F)N1CCC(O)(Cn2cnc3c(-c4ccccc4)nsc3c2=O)CC1 [Compound I-19] ?
500 to 1000 nM

How about COc1ccc(C(=O)N2CCC(O)(Cn3cnc4c(-c5ccc(F)cc5)n[nH]c4c3=O)CC2)cc1 [Compound I-20] ?
1000 to 10000 nM

How about CC(CC(=O)N1CCC(O)(Cn2cnc3c(-c4ccccc4)nsc3c2=O)CC1)c1ccccc1 (stereo not drawn) [Compound I-11] ?
500 to 1000 nM

How about O=C(c1ccc(F)cc1)N1CCC(O)(Cn2cnc3c(-c4ccc(F)cc4)n[nH]c3c2=O)CC1 [Compound I-5] ?
500 to 1000 nM

How about COc1ccc(C(=O)N2CCC(O)(Cn3cnc4c(-c5ccccc5)n[nH]c4c3=O)CC2)cc1 [Compound I-7] ?
1000 to 10000 nM

How about C[C@H](CC(=O)N1CCC(O)(Cn2cnc3c(-c4ccccc4)nsc3c2=O)CC1)n1cccn1 [Compound I-16] ?
1000 to 10000 nM

How about C[C@@H](CC(=O)N1CCC(O)(Cn2cnc3c(-c4ccccc4)nsc3c2=O)CC1)n1cccn1 [Compound I-15] ?
1000 to 10000 nM

How about O=C(C[C@H](c1ccccc1)C(F)F)N1CCC(O)(Cn2cnc3c(-c4ccccc4)nsc3c2=O)CC1 [Compound I-18] ?
> 10000 nM

How about COc1ccc(C(=O)N2CCC(O)(Cn3cnc4c(-c5ccccc5)nsc4c3=O)CC2)cc1 [Compound I-8] ?
1000 to 10000 nM

How about C[C@H](CC(=O)N1CCC(O)(Cn2cnc3cc[nH]c3c2=O)CC1)c1ccccc1 [Compound I-28] ?
< 500 nM

How about C[C@H](CC(=O)N1CCC(O)(Cn2cnc3c(-c4ccccc4)nsc3c2=O)CC1)c1ccccc1 [Compound I-13] ?
1000 to 10000 nM

How about COc1ccc(-c2n[nH]c3c(=O)n(CC4(O)CCN(C(=O)c5ccc(F)cc5)CC4)cnc23)cc1 [Compound I-6] ?
< 500 nM

How about COc1ccc(C(=O)N2CCC(O)(Cn3cnc4c(-c5ccc(OC)cc5)n[nH]c4c3=O)CC2)cc1 [Compound I-21] ?
500 to 1000 nM

How about O=C(c1ccc(F)cc1)N1CCC(O)(Cn2cnc3c(-c4ccc(F)cc4)nsc3c2=O)CC1 [Compound I-30] ?
> 10000 nM

How about O=C(c1ccccc1)N1CCC(O)(Cn2cnc3c(-c4ccccc4)n[nH]c3c2=O)CC1 [Compound I-29] ?
500 to 1000 nM

How about COc1ccc(C(=O)N2CCC(O)(Cn3cnc4c(-c5ccc(F)cc5)nsc4c3=O)CC2)cc1 [Compound I-3] ?
1000 to 10000 nM

How about CN(C)C(=O)N1CCC(O)(Cn2cnc3c(-c4ccc(NCCN5CCCCC5)cc4)nsc3c2=O)CC1 [Compound I-26] ?
1000 to 10000 nM

How about COc1ccc(C(=O)N2CCC(O)(Cn3cnc4c(-c5ccc(CO)cc5)nsc4c3=O)CC2)cc1 [Compound I-24] ?
1000 to 10000 nM
